The reader will find reported Ratio IC50 values listed item by item below.
# Experimental Protocol: Selectivity index, ratio of IC50 for horse butyrylcholine esterase to IC50 for electric eel acetylcholine esterase
Form: value (number only, do not type unit).

Here are 3 compounds together with their reported answers.
COc1cccc(CCCCCCCCN2CCC(OC(=O)N(C)C)C2)c1 (racemic): 1.7
COc1cccc(CCCCCCCCN2CCCC(OC(C)=O)C2)c1 (racemic): 1.2
COc1cccc(CCCCCCCCN2CCCC2)c1: 0.8

What Ratio IC50 value was documented for this compound, `CCN(CCCCCCCCc1cccc(OC)c1)Cc1ccccc1` ?
0.5

Please answer likewise for COc1cccc(CCCCCCCCN2CCCC(OC(=O)N(C)C)C2)c1 (racemic)
1.7

Please answer likewise for `COc1cccc(CCCCCCCCNCc2ccccc2OC)c1`
0.2

Please answer likewise for `CCN(CCCCCCCCc1cccc(OC)c1)Cc1ccccc1OC`
0.8

###

# Assay System: UniProt:O42275
# Experimental Protocol: Non-competitive inhibition of electric eel acetylcholine esterase using […] as substrate by Ellman's method
The reader will find reported pKi values listed item by item below.
Scale note: pKi = -log10(concentration in M).

Here are 5 molecules together with their reported answers.
CCN(CCCCCCCCc1cccc(OC)c1)Cc1ccccc1: 4.98
COc1cccc(CCCCCCCCNCc2ccccc2OC)c1: 4.77
COc1cccc(CCCCCCCCN2CCCC(OC(=O)N(C)C)C2)c1 (racemic): 4.65
CCN(CCCCCCCCc1cccc(OC)c1)Cc1ccccc1OC: 4.61
COc1cccc(CCCCCCCCN2CCCC(OC(C)=O)C2)c1 (racemic): 4.72

Then this molecule:
What pKi value was documented for this molecule, COc1cccc(CCCCCCCCN2CCC(OC(=O)N(C)C)C2)c1 (racemic) ?
5.07

###

# Assay System: Acetylcholinesterase (Homo sapiens)
# Sequence (P22303 whole entry): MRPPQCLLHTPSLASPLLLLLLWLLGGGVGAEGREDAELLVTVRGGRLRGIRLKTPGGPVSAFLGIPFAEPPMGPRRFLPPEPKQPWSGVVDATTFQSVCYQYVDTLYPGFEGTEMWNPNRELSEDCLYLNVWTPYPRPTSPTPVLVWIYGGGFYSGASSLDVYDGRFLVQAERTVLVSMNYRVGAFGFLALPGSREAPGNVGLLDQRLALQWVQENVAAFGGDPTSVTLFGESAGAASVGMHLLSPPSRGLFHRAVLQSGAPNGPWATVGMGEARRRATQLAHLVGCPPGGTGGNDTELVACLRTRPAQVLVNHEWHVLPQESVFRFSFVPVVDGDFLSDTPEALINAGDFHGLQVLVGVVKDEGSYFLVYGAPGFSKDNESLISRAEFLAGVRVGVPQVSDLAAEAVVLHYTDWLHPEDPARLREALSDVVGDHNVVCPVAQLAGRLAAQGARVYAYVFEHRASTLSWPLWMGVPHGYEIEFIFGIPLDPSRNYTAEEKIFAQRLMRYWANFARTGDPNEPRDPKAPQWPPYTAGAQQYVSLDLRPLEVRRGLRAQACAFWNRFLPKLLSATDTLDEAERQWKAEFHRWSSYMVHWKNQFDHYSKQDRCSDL
Observed Property: pIC50
Scale note: pIC50 = -log10(concentration in M).

What pIC50 value was documented for this compound, `CCN(CCCCCCCCc1cccc(OC)c1)Cc1ccccc1OC` ?
5.25

###

# Experimental Protocol: Cytotoxicity against human HT-29 cells assessed as decrease in cell viability after 24 hrs by calcein-AM/propidium iodide based fluorescence analysis
# Experimental Context: read-out: INH
Observed Property: cytotoxicity at 24 h (%)
Express it in %; write the number only.

What cytotoxicity at 24 h value was documented for this compound, `COc1cccc(CCCCCCCCNCc2ccccc2OC)c1` ?
46.3

###

List of IC50 tested on Cholinesterase (Equus caballus).
Sequence (P81908 whole entry): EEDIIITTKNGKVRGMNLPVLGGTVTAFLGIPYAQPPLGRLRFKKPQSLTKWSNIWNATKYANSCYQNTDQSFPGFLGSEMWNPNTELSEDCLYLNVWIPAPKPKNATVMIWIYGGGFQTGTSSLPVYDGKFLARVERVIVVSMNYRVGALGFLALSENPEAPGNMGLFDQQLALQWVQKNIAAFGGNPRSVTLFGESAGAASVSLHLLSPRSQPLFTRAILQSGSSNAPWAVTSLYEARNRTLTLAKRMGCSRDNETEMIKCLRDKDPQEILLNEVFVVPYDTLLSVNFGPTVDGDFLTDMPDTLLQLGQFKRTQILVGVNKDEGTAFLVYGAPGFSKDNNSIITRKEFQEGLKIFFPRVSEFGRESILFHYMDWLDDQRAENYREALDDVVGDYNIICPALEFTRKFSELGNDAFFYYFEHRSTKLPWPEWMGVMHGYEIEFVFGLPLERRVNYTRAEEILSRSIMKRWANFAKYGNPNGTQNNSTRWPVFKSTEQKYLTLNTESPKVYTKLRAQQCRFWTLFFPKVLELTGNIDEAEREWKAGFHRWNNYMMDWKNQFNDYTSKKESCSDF

Here are 2 compounds together with their reported answers.
COc1cccc(CCCCCCCCN2CCC(OC(=O)N(C)C)C2)c1 (racemic): 22.8 µM
COc1cccc(CCCCCCCCNCc2ccccc2OC)c1: 3.1 µM

What IC50 value was documented for this compound, `CCN(CCCCCCCCc1cccc(OC)c1)Cc1ccccc1` ?
8 µM

Please answer likewise for COc1cccc(CCCCCCCCN2CCCC(OC(C)=O)C2)c1 (racemic)
19 µM

Please answer likewise for COc1cccc(CCCCCCCCN2CCCC(OC(=O)N(C)C)C2)c1 (racemic)
23.5 µM

Please answer likewise for `CCN(CCCCCCCCc1cccc(OC)c1)Cc1ccccc1OC`
5 µM

Please answer likewise for `COc1cccc(CCCCCCCCN2CCCC2)c1`
16.4 µM

###

# Assay System: Acetylcholinesterase (Electrophorus electricus, UniProt O42275)
# Sequence (O42275 whole entry): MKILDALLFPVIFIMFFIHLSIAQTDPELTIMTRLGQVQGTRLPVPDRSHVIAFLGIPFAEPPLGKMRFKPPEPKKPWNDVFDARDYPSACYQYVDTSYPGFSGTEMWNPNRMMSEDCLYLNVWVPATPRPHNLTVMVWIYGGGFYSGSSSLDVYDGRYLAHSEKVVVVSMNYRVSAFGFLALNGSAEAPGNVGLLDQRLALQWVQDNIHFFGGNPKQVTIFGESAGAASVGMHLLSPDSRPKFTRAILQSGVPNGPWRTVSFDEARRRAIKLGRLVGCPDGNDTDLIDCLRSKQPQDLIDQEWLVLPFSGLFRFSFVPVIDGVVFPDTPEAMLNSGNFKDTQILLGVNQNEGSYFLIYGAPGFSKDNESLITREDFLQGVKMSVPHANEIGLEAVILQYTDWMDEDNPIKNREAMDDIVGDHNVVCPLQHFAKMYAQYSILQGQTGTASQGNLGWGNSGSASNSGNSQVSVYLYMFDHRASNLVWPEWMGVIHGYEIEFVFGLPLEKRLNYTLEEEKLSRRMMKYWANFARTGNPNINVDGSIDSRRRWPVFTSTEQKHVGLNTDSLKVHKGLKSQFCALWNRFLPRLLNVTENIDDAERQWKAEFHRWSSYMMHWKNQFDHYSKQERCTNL
Observed Property: pIC50
Scale note: pIC50 = -log10(concentration in M).

Here are 5 molecules together with their reported answers.
COc1cccc(CCCCCCCCN2CCC(OC(=O)N(C)C)C2)c1 (racemic): 4.86
COc1cccc(CCCCCCCCN2CCCC(OC(=O)N(C)C)C2)c1 (racemic): 4.84
COc1cccc(CCCCCCCCN2CCCC(OC(C)=O)C2)c1 (racemic): 4.79
CCN(CCCCCCCCc1cccc(OC)c1)Cc1ccccc1OC: 5.18
COc1cccc(CCCCCCCCNCc2ccccc2OC)c1: 4.76

What pIC50 value was documented for this molecule, `CCN(CCCCCCCCc1cccc(OC)c1)Cc1ccccc1` ?
4.79

Please answer likewise for `COc1cccc(CCCCCCCCN2CCCC2)c1`
4.71
